system name: C5AR1 (Homo sapiens)
Sequence (P21730 whole entry): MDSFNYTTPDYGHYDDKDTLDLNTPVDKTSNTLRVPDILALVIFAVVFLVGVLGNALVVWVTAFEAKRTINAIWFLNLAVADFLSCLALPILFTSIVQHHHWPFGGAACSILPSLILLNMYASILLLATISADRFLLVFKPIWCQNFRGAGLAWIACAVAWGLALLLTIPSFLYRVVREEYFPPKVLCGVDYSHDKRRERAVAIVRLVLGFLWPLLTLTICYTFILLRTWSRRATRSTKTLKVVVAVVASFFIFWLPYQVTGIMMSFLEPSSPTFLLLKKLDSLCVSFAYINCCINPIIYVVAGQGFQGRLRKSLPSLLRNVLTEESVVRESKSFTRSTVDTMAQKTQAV
procedure details: In vitro assay: antagonism of C5a-induced beta-arrestin recruitment (PathHunter) in CHO-K1 C5AR1 beta-arrestin cell line
protocol conditions: antagonistic activity, 1-10 nM C5a agonist, geometric mean where several measurements, read-out: C5aR IC50
pIC50: −log10 of the molar value.
measured metric: pIC50

1. COc1nccc(C)c1N1CCC(N2Cc3cn(CC4(F)CC4)nc3N(Cc3ccccc3C(F)(F)F)C2=O)CC1	8.22
2. Cn1cc2c(n1)N(Cc1ccccc1C1CC1)C(=O)N(C1CCN(c3c(F)cccc3C3CC3)CC1)C2	7.52

[a] COc1nccc(C)c1N1CCC(N2C(=O)N(Cc3ccccc3C(F)(F)F)c3cn(C4CC4)nc3C2C)CC1 (single isomer, unassigned) [Example 296]
[b] CC1c2cn(C3CC3)nc2N(Cc2ccccc2C(F)(F)F)C(=O)N1C1CCN(c2c(F)cccc2Cl)CC1 (single isomer, unassigned) [Example 336]
[c] COC(=O)Cn1ncc2c1CN(C1CCN(c3c(C)cccc3F)CC1)C(=O)N2Cc1ccccc1C(F)(F)F
Ask: Descending sort on pIC50 required. Answer format: list of labels, ordered as asked.
Result: a, b, c
(a: 7.82, b: 7.05, c: 6.20)

[P] Cc1cccc(F)c1N1CCC(N2Cc3cn(C)nc3N(Cc3c(F)cccc3C(F)(F)F)C2=O)CC1
[Q] Cc1cccc(F)c1N1CCC(C)(N2Cc3cn(C)nc3N(Cc3ccccc3C(F)(F)F)C2=O)C1 (single isomer, unassigned) [Example 234]
[R] Cc1cccc(F)c1N1CCC(N2Cc3cn(C4CN(C(=O)OCC(C)C)C4)nc3N(Cc3ccccc3C(F)(F)F)C2=O)CC1
Ask: Put these in order: smallest pIC50 first, largest last. Answer format: list of labels, ordered as asked.
Result: Q, P, R
